Cited source for all entries: ChEMBL document CHEMBL1128394

# TGT: Neprilysin (Oryctolagus cuniculus, UniProt P08049)
# Sequence (P08049 whole entry): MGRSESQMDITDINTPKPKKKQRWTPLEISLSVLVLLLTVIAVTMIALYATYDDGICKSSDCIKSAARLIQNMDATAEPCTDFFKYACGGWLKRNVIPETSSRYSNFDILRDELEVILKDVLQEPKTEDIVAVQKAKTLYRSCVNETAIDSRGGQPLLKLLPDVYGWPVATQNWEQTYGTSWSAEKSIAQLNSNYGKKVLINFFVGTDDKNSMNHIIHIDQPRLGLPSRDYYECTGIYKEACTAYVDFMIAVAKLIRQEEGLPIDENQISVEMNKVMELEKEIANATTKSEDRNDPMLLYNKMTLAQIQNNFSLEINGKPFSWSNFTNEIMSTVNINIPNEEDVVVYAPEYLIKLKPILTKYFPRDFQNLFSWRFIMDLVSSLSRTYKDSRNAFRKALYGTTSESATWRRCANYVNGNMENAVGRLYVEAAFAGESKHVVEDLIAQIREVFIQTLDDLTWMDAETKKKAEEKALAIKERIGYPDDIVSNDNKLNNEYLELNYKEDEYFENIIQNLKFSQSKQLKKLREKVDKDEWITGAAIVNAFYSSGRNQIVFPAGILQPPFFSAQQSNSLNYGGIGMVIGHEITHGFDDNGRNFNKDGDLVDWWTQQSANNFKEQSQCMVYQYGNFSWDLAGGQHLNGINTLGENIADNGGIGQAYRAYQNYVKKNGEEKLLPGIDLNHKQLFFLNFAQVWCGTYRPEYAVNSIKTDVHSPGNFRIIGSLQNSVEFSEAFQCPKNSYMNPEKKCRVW
# PROTOCOL: Inhibitory activity against big ET-1 of Neutral endopeptidase
QUANTITY MEASURED: pIC50
On this scale, pIC50 is minus log10 of a concentration expressed in M (mol/L).

For CC(C)C(C(=O)NO)C(=O)NCC(=O)O (stereo not drawn) , what is its reported pIC50?
8.10

// query: CC(C)CC(C(=O)NO)C(=O)NC(Cc1c[nH]c2ccccc12)C(N)=O (stereo not drawn)
8.15

// query: `C[C@H](NC(=O)[C@@H](CC(=O)NO)Cc1ccccc1)C(=O)O`
8.10
